Value source: PubChem BioAssay AID1347426

- EXPERIMENT_NOTES: Novel Modifiers of Survival Motor Neuron (SMN) Protein: Gene Identification via Genome-wide siRNA Screen;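 further: luminescence tracks full-length SMN protein made from the SMN2 reporter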
- SETTINGS: HEK293T SMN2-luciferase reporter, siRNA knockdown, 72 h; actives lie on both sides
The campaign covered roughly 31,000 sequences. About 1,400 (4.5%) were called active.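 How the source made its calls: active means median seed-adjusted z-score above 1 or below -1; inactive means the rest.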 This is one part of a sample in which actives are shown more often than they occur.
Write down one outcome, taken from active, inactive

- CGGUGGUGAAUGAAAGUCATT against FKBP14: inactive
- GCCUCUACAGCAGAAGAAATT against LAMB2: active
- ACAGCCGCAUGAACAAGGATT against B3GNT7: active
- GGAUGCUUCUGAAUAGAAATT against BIRC7: active
- GGACAUCUAUGUUAUAUGUTT against TRIM65: inactive
- GAACGAGUGAGAGAAUAUATT against TTC9C: inactive
- CCAAGGAGCUUACUAUGGATT against SETDB2: inactive
- AGAAUGACAGGGUCCAGAATT against OGFR: inactive
- GCCUCACCUCAAUUGCAAATT against ANP32D: inactive
- GCUUUCGUCAAGUCAAAGATT against TIRAP: inactive

-- ask Entry UGAAUUUCGUAGUUCCAUATT against CNOT8 : call = ?
-- reply inactive

-- ask Entry GACUGACACGGAAUAGUGUTT against ZNF286A : call = ?
-- reply inactive
